methodNotes: Pharmacokinetics in rats with ABT pretreatment (intestinal and hepatic availability)
assaySetup: rat, plasma, po, 1 mg/kg, MRT(0–t), rats, i.v. ABT, p.o. YL-IPA08 (1 mg/kg)
metric: MRT last
# do not omit the unit; it follows the number

Request: State the recorded MRT last for this entry: "CCN(Cc1ccccn1)C(=O)Cc1c(-c2ccc(Cl)c(Cl)c2)nc2cc(C)ccn12"
Response: 8.37 h

---

methodNotes: Bioavailability study in rats (i.v. and p.o.)
Type: in vivo
assaySetup: male, SD, rat, plasma, po, p.o. 10 mg/kg, read-out: MRT(0–t)
metric: MRT last (h)
Answer in h, number only, no unit symbol.

Request: State the recorded MRT last for this entry: "CCN(Cc1ccccn1)C(=O)Cc1c(-c2ccc(Cl)c(Cl)c2)nc2cc(C)ccn12"
Response: 7.73

---

methodNotes: Pharmacokinetics in rats with ABT pretreatment (intestinal and hepatic availability)
assaySetup: rat, plasma, intravenous, Plasma concentration, rats, i.v. 50 mg/kg ABT, i.v. 0.5 mg/kg YL-IPA08, 1 h
metric: concentration at 1 h (ng/mL)
Answer in ng/mL, number only, no unit symbol.

Request: State the recorded concentration at 1 h for this entry: "CCN(Cc1ccccn1)C(=O)Cc1c(-c2ccc(Cl)c(Cl)c2)nc2cc(C)ccn12"
Response: 113

---

methodNotes: Bioavailability study in rats (i.v. and p.o.)
Format: in vivo
assaySetup: male, Sprague-Dawley (SD), rat, plasma, oral administration (1–10 mg/kg), read-out: bioavailability
Method: Male SD rats (200-240 g) were obtained from Beijing Vital River Laboratory Animal Technology Co., Ltd. Animals were housed in a temperature- and humidity-controlled room with a 12 h light/dark cycle. […] Pharmacokinetic parameters were calculated by the noncompartmental method using WinNonlin 7.0 (Pharsight, CA). The area under the plasma concentration time curve (AUC) from time 0 to the last time point with a measurable concentration (AUC0-t) was calculated by trapezoidal method. […]
metric: bioavailability

Request: State the recorded bioavailability for this entry: "CCN(Cc1ccccn1)C(=O)Cc1c(-c2ccc(Cl)c(Cl)c2)nc2cc(C)ccn12"
Response: ~6%

---

methodNotes: Pharmacokinetics in rats with ABT pretreatment (intestinal and hepatic availability)
assaySetup: rat, plasma, intravenous, 0.5 mg/kg, Plasma concentration, rats, i.v. 50 mg/kg ABT, i.v. 0.5 mg/kg YL-IPA08, 0.033 h
metric: concentration at 0.033 h (ng/mL)
Answer in ng/mL, number only, no unit symbol.

Request: State the recorded concentration at 0.033 h for this entry: "CCN(Cc1ccccn1)C(=O)Cc1c(-c2ccc(Cl)c(Cl)c2)nc2cc(C)ccn12"
Response: 398

---

methodNotes: Pharmacokinetics in rats with ABT pretreatment (intestinal and hepatic availability)
assaySetup: rat, plasma, intravenous, Plasma concentration, rats, p.o. 100 mg/kg ABT, i.v. 0.1 mg/kg YL-IPA08, 0.5 h
metric: concentration at 0.5 h (ng/mL)
Answer in ng/mL, number only, no unit symbol.

Request: State the recorded concentration at 0.5 h for this entry: "CCN(Cc1ccccn1)C(=O)Cc1c(-c2ccc(Cl)c(Cl)c2)nc2cc(C)ccn12"
Response: 245

---

methodNotes: Bioavailability study in rats (i.v. and p.o.)
Format: in vivo
assaySetup: male, SD, rat, plasma, po, p.o. 10 mg/kg
metric: AUC(0-t) (ng·h/mL)
Answer in ng·h/mL, number only, no unit symbol.

Request: State the recorded AUC(0-t) for this entry: CCN(Cc1ccccn1)C(=O)Cc1c(-c2ccc(Cl)c(Cl)c2)nc2cc(C)ccn12 [YL-IPA08]
Response: 104

Data credit: paper PMC7732531
